- System: HeLa
- experiment: Antiproliferative activity against BRCA1-deficient human HeLa cells after 7 days by celltiter-blue assay
- Type: functional
- details: 168 h
measured_property: log10 CC50 (log10 of the value in nM)
Record value = log10 of CC50 given in nM.

Solved entries (count: 4):
CNC(C)(C)C(=O)N1CCN(C(=O)c2cc(Cc3c[nH]c(=O)c4cc(Cl)c(Cl)n34)ccc2F)CC1 1.72
O=C(c1cc(Cc2c[nH]c(=O)c3c(Cl)cc(Cl)n23)ccc1F)N1CCCNCC1 4.26
CC(=O)N1CCN(C(=O)c2cc(Cc3c[nH]c(=O)c4cc(Cl)c(Cl)n34)ccc2F)CC1 2.85
CN(C)S(=O)(=O)N1CCN(C(=O)c2cc(Cc3c[nH]c(=O)c4cc(Cl)c(Cl)n34)ccc2F)CC1 2.96

I need log10 CC50 for every entry listed below, if you could help.
1. N#Cc1cccnc1N1CCN(C(=O)c2cc(Cc3c[nH]c(=O)c4cc(Cl)c(Cl)n34)ccc2F)CC1
2. N#Cc1ccc(N2CCN(C(=O)c3cc(Cc4c[nH]c(=O)c5cc(Cl)c(Cl)n45)ccc3F)CC2)nc1

**A:**
1. 1.79
2. 2.30
